Data origin: paper PMC9861858

- Tested on: NIH/3T3 fibroblasts
- Assay: MTT assay on fibroblasts (selectivity)
- Format: cell-based, murine
- Particulars: Mus musculus, NIH3T3, 30 μM, 72 h, values <20% considered negligible, read-out: Growth inhibition (%) ± SEM, NIH/3T3
Observed property: inhibition at 30 µM (%)
The reply should contain only the number, in %.

Compound	Val
COC(=O)[C@]1(C)CCC[C@@]2(C)C3CC[C@]4(O)C[C@@]3(CCC21)[C@@H](O)[C@]4(O)CN[C@@H](C)c1ccccc1 (stereo partly drawn) [Compound 8]	103
COC(=O)[C@]1(C)CCC[C@@]2(C)C3CC[C@]4(O)C[C@@]3(CCC21)[C@@H](O)[C@]4(O)CNCc1ccc(F)cc1 (stereo partly drawn) [Compound 9]	92.4
COC(=O)[C@]1(C)CCC[C@@]2(C)C3CC[C@]4(O)C[C@@]3(CCC21)[C@@H](O)[C@]4(O)CNCc1cccc2ccccc12 (stereo partly drawn) [Compound 14]	97.3
COC(=O)[C@]1(C)CCC[C@@]2(C)C3CC[C@]4(O)C[C@@]3(CCC21)[C@@H](O)[C@]4(O)CNCc1ccccc1 (stereo partly drawn) [Compound 5]	101

Shifting focus to the compound that follows.
Request: Give inhibition at 30 µM only, for COC(=O)[C@]1(C)CCC[C@@]2(C)C3CC[C@]4(O)C[C@@]3(CCC21)[C@@H](O)[C@]4(O)CN[C@H](C)c1ccc2ccccc2c1 (stereo partly drawn) [Compound 12] , using NIH/3T3 fibroblasts data.
Result: 94.7
